Please provide measured Papp at 18 h for the entries that follow.
Test: Parallel Artificial Membrane Permeation Assay
Conditions: PAMPA, pH 7.4

MOLECULE	PROPERTY NAME	READING
O=C(N[C@H](CO)[C@H](O)c1ccc([N+](=O)[O-])cc1)C(Cl)Cl [chloramphenicol, reference compound]	Papp at 18 h	4.36 to 4.99 ×10⁻⁶ cm/s

Query string: Entry Cn1c(=O)c2[nH]cnc2n(C)c1=O.O [theophylline, reference compound] needs its Papp at 18 h filled in; supply it.
Result string: 0.27 to 0.33 ×10⁻⁶ cm/s

The reported measurements were obtained from paper PMC9939005.
